System: 883617-216-R-J1-PDC complex spheroid viability;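 note: spheroids exposed to compounds for seven days before readout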
Assay: Anticancer human tumor 883617-216-R-J1-PDC patient-derived bladder carcinoma cell line growth inhibition [POLQ]; active = viability on the fitted dose curve at most 10% of control; inactive = the rest
Settings: second compound 1 µM; first compound 1 µM
Experimental: Multicellular complex tumor spheroid response to Polymerase (POL) inhibitors (novobiocin, ART-558, RP6685) in combination with a variety of drugs and investigational agents in selected tumor cell lines The POL inhibitors (novobiocin, ART-558, and RP6685) were evaluated both individually and in combination with standard of care and investigational anticancer small molecules within a complex spheroid model of solid tumors. . […]
Choose the fitting class; nothing outside active, inactive is accepted.

Check out these entries, answers already filled in.
{"MOLECULE": "CNCc1ccc(-c2[nH]c3cc(F)cc4c3c2CCNC4=O)cc1 + Cc1cccc(N(C)C(=O)C2C(O)CCN2c2nc(C)cc(C(F)(F)F)c2C#N)c1", "CATEGORY": "inactive"}
{"MOLECULE": "COc1cccc2c1C(=O)c1c(O)c3c(c(O)c1C2=O)CC(O)(C(=O)CO)CC3OC1CC(N)C(O)C(C)O1 (stereo unspecified) + Cc1cccc(N(C)C(=O)C2C(O)CCN2c2nc(C)cc(C(F)(F)F)c2C#N)c1", "CATEGORY": "active"}
{"MOLECULE": "CCc1cc2c(N3CCc4c(cc(Cn5ccnc5)cc4-c4cn(C)nc4C(F)(F)F)C3=O)ccnc2c(OC)n1 + Cc1cccc(N(C)C(=O)C2C(O)CCN2c2nc(C)cc(C(F)(F)F)c2C#N)c1", "CATEGORY": "inactive"}
{"MOLECULE": "O=c1[nH]cc(F)c(=O)[nH]1 + Nc1ccc(C#CCN(C(=O)Cc2ncc(C(F)(F)F)cc2C(F)(F)F)c2ccc(F)cc2)nn1", "CATEGORY": "inactive"}
{"MOLECULE": "O=C(Nc1ccc(O)c(NS(=O)(=O)c2ccc(F)cc2)c1)c1ccc(-c2ccccc2)cc1 + Cc1cccc(N(C)C(=O)C2C(O)CCN2c2nc(C)cc(C(F)(F)F)c2C#N)c1", "CATEGORY": "inactive"}
{"MOLECULE": "C=CCn1c(=O)c2cnc(Nc3ccc(N4CCN(C)CC4)cc3)nc2n1-c1cccc(C(C)(C)O)n1 + COC1C(OC(N)=O)C(O)C(Oc2ccc3c(O)c(NC(=O)c4ccc(O)c(CC=C(C)C)c4)c(=O)oc3c2C)OC1(C)C", "CATEGORY": "inactive"}

Request: How did this test come out for Nc1ccn(C2OC(CO)C(O)C2(F)F)c(=O)n1 (stereo unspecified) + Nc1ccc(C#CCN(C(=O)Cc2ncc(C(F)(F)F)cc2C(F)(F)F)c2ccc(F)cc2)nn1 ?
Result: inactive

Request: Hi, do you know how CC(C)n1c(=O)n(C)c2cnc3cc(F)c(-c4ccc(OCCCN5CCCCC5)nc4)cc3c21 + Cc1cccc(N(C)C(=O)C2C(O)CCN2c2nc(C)cc(C(F)(F)F)c2C#N)c1 came out in this test?
Result: inactive

Request: For C#Cc1c(F)ccc2cc(O)cc(-c3ncc4c(N5CC6CCC(C5)N6)nc(OCC56CCCN5CC(F)C6)nc4c3F)c12 (stereo unspecified) + Nc1ccc(C#CCN(C(=O)Cc2ncc(C(F)(F)F)cc2C(F)(F)F)c2ccc(F)cc2)nn1 , which call appears in the assay record?
Result: inactive

Request: What outcome does the record of this test show for C=CC(=O)N1CCN(c2nc(=O)n(-c3c(C)ccnc3C(C)C)c3nc(-c4c(O)cccc4F)c(F)cc23)C(C)C1 (stereo unspecified) + Cc1cccc(N(C)C(=O)C2C(O)CCN2c2nc(C)cc(C(F)(F)F)c2C#N)c1 ?
Result: inactive

Request: Field: outcome | Entry: CCc1c2c(nc3ccc(O)cc13)-c1cc3c(c(=O)n1C2)COC(=O)[C@]3(O)CC + Nc1ccc(C#CCN(C(=O)Cc2ncc(C(F)(F)F)cc2C(F)(F)F)c2ccc(F)cc2)nn1
Result: inactive
